# Tested on: U2OS
# assaySummary: Multiplex assay against U2OS
# Assay type: toxicity, cell-based
# conditionSummary: human, 24 h, 10 µM, compound concentration 10 uM, replicate 2
measuredEndpoint: Population Mitochondria Different-Phenotype (%)

compound: CNC(=O)c1cc(Oc2ccc(NC(=O)Nc3cc(C(C)(C)C)nn3-c3ccc4ncccc4c3)c(F)c2)ccn1
assayResult: 87%

compound: CCOc1cc2ncc(C#N)c(Nc3ccc(OCc4cccc(F)c4)c(Cl)c3)c2cc1NC(=O)/C=C/CN(C)C
assayResult: 69%

compound: CC(=O)O[C@H]1C(=O)[C@@]2(C)[C@H]([C@H](OC(=O)c3ccccc3)[C@]3(O)C[C@H](OC(=O)[C@H](O)[C@@H](NC(=O)c4ccccc4)c4ccccc4)C(C)=C1C3(C)C)[C@]1(OC(C)=O)CO[C@@H]1C[C@@H]2O
assayResult: 32% [middle of 4 runs]

compound: N#Cc1cnc(Nc2cc(NC[C@H]3CNCCO3)c(C(F)(F)F)cn2)cn1
assayResult: 19%

compound: c1ccc2oc(-c3csc(C4CCN(Cc5nc6ncccc6[nH]5)CC4)n3)cc2c1
assayResult: 33%

compound: COc1ccc(NS(=O)(=O)c2sc3ccc(Cl)cc3c2C)cc1N1CCNCC1.Cl
assayResult: 97%

compound: CCn1c(-c2nonc2N)nc2cnc(Oc3cccc(NC(=O)c4ccc(OCCN5CCOCC5)cc4)c3)cc21 [GSK-269962A]
assayResult: 97%
